System: CAL-51
method summary: normalised response (% of control), CellTiter-Glo; higher = more viable cells (100 = DMSO, 0 = benzethonium chloride kill control)
protocol conditions: incubation time: 72 h
value type: normalised response (%)
# value in %; strip the unit string

# count of solved cases: 5
CCNC(=O)CCC/C=C\C[C@@H]1[C@@H](/C=C/[C@@H](O)CCc2ccccc2)[C@H](O)C[C@@H]1O [Bimatoprost] (5500 nM)
160
Cc1cn(-c2cc(NC(=O)c3ccc(C)c(Nc4nccc(-c5cccnc5)n4)c3)cc(C(F)(F)F)c2)cn1 [Nilotinib] (10000 nM)
86.3
Cc1nc(C(=O)NCC(=O)O)c(O)c2ccc(Oc3ccccc3)cc12 [FG-4592] (10000 nM)
97.7
C=CCn1c(=O)c2cnc(Nc3ccc(N4CCN(C)CC4)cc3)nc2n1-c1cccc(C(C)(C)O)n1 [MK1775] (10000 nM)
8.21
C/C(=C\c1csc(C)n1)[C@@H]1C[C@@H]2O[C@]2(C)CCC[C@H](C)[C@H](O)[C@@H](C)C(=O)C(C)(C)[C@@H](O)CC(=O)N1 [Ixabepilone] (1000 nM)
23.7

// moving on: another record for normalised response
query: Under CAL-51: report normalised response of CC(O)(CS(=O)(=O)c1ccc(F)cc1)C(=O)Nc1ccc(C#N)c(C(F)(F)F)c1 (stereo unspecified) [Bicalutamide] (10000 nM) .
result: 92.8
